molecular target: ER-α (Homo sapiens); construct: endogenous in cells; host or cells: MCF-7; test: ER-α in Cell Western Assay (SP1); format: cell-based; conditions: MCF-7 cells, SP1 rabbit monoclonal Ab, 4 or 24 hr post compound addition; read-out: ER In-Cell Western Assay (SP1); IC50
Sequence (P03372 whole entry): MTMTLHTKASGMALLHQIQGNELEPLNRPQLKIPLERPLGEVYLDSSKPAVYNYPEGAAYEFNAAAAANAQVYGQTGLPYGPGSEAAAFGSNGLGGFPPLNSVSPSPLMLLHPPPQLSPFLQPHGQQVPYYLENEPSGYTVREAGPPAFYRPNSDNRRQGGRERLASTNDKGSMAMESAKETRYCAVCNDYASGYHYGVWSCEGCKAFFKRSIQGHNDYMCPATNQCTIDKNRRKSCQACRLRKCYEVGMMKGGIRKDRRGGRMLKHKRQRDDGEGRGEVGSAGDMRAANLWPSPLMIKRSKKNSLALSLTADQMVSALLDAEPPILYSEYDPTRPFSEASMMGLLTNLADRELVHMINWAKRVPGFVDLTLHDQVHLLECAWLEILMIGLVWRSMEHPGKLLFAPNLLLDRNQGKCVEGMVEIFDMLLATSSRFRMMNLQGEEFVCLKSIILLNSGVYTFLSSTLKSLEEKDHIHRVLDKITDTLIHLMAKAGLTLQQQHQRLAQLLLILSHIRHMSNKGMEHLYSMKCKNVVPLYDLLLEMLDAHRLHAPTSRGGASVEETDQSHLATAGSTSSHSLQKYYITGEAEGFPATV
measured_parameter: DC50

molecule: Oc1ccc(C2Cc3cc(O)ccc3C2c2ccc(OCCN3CCCC3)cc2)cc1 (stereo not drawn)
target_under_test: ER-α (Homo sapiens)
measured_parameter: DC50
experimental_result: ≤ 1 nM
--
molecule: C[C@@H]1CCN([C@@H](C)COc2ccc(C3c4ccc(O)cc4CC3c3ccccc3)cc2)C1 (stereo partly drawn)
target_under_test: ER-α (Homo sapiens)
measured_parameter: DC50
experimental_result: ≤ 1 nM

Read the next record carefully.
Quick check: DC50 of C[C@@H]1CCN([C@@H](C)COc2ccc(C3c4ccc(O)cc4CC3c3ccc(F)cc3)cc2)C1 (stereo partly drawn) ?
≤ 1 nM
